As shown below, each of these molecules has a reported T½ value.
# targetDesc: T1, hPRLR.mmh (soluble monomeric human PRLR) (Homo sapiens, UniProt P16471)
# T1 construct: soluble monomeric (hPRLR.mmh); mmh (myc-myc-hexahistidine)
# T1 sequence (P16471 with tags, fused parts or gaps): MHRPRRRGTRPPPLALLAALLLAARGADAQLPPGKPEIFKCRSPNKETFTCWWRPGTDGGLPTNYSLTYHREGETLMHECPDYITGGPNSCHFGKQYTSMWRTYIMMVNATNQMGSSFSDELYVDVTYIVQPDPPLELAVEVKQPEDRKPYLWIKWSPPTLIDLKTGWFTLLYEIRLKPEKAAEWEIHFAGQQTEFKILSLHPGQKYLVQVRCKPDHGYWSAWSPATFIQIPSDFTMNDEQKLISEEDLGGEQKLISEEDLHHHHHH
# experimentalDetails: Surface plasmon resonance (Biacore T200), mAb-capture format
# Assay type: binding
# conditionContext: 37° C., antibody-capture format, analyte hPRLR.mmh

{"molecule": "H1H6793P: anti-PRLR antibody, human IgG1 Fc; HCVR/LCVR SEQ ID NOs 146/154 (antibody, V domains shown, human IgG1 Fc) VH: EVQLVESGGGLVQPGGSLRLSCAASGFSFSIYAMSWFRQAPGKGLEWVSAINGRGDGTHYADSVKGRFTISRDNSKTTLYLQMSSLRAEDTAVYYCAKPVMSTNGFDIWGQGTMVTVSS VL: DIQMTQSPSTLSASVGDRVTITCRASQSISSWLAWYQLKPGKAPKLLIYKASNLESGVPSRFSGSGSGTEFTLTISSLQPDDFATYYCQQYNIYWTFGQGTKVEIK", "T½": "11 min"}
{"molecule": "H1H6959N2: human IgG1 Fc form of H2M6959N2; anti-PRLR; HCVR/LCVR SEQ ID NOs 306/314 (antibody, V domains shown, human IgG1 Fc) VH: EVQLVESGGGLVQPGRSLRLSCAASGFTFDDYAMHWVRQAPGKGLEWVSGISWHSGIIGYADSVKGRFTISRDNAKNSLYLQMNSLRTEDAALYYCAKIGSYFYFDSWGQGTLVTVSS VL: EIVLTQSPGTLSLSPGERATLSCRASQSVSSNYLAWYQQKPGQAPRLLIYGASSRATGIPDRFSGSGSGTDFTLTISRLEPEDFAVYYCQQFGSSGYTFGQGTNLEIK", "T½": "0.4 min"}
